Recorded functional reporter gene assay (% inhibition), 0.04 µg/mL mAb by entry
Subject of test: T1, human IL-1RAcP on 293T/17-FR cells (human, UniProt Q9NPH3 21-570)
T1 sequence (looked up): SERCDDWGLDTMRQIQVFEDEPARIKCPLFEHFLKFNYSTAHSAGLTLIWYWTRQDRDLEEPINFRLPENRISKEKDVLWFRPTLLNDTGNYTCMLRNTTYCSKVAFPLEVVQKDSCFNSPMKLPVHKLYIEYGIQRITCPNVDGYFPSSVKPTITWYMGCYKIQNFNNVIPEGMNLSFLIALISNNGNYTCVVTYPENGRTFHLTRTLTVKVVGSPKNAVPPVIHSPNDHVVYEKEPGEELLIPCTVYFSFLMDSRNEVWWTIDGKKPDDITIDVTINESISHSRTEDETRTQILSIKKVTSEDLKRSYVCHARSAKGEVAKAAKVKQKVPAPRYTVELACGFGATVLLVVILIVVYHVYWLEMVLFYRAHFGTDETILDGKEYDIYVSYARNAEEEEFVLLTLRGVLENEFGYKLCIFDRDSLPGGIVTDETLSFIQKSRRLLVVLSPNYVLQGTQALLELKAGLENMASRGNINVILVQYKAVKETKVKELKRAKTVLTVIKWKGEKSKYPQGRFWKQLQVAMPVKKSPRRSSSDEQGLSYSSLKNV
Assay comment: cell-based or functional assay
Respond with the bare value in %.

Use these answered entries as a reference point.
P013.S.01.B.C05 (antibody, V domains shown, rabbit monoclonal antibody; also called P013.A.00045.E06) VH: QSVEESGGRLVTPGTPLTLTCTVSGFSLSNYAMSWVRQAPGKGLEYIGIIDSGGSAYYATWARGRFTISRTSTTVDLKMTSPTTEDTATYFCARGGPAYSTNTHYTLDLWGPGTLVTVSS VL: AFEMTQTPSSVSEPVGGTVTIKCQASQSIYNYLSWYQQKPGQPPKLLIYDASELASGVPSRFKGSGSGTEFTLTISGVQSDDAATYYCQQGATTYNIENVFGGGTEVVVK ... 67
P013.S.01.B.D04 (antibody, V domains shown, rabbit monoclonal antibody; also called P013.A.00088.B09) VH: QEQLKESGGRLVTPGGSLTLTCTVSGFSLSIYAMGWFRQAPGKGLEWIGDIYPGSDSTWYASWAKGRFTISKTSTTVDLKITSPTTEDTATYFCAREIDAGYVGYGFDLWGQGTLVTVSS VL: AQALTQTPSSVSAAVGGTVTINCQSSQSVYSDYLAWYQQKPGQSPKLLIYKASKLASGVPSRFKGSGSGTEFTLTISGVQSDDAATYYCQATYYSVGWYRAFGGGTEVVVK ... 27

Query string: Which functional reporter gene assay (% inhibition), 0.04 µg/mL mAb reading was recorded for the binder P013.S.01.B.B05 (antibody, V domains shown, rabbit monoclonal antibody; also called P013.A.00030.D07) VH: QSLEESGGRLVTPGTPLTLTCTASGFSLSSYYMSWVRQAPGKGLEWVGIISGSASTYYATWAKGRFTISKTSTTVDLKIASPTTEDTATYFCARTHYAAVAGYGYASRLDLWGQGTLVTVSS VL: AIEMTQSPPSLSASVGETVRIRCLASEDIYSGISWYQQKPGKPPTLLIYAASNLESGVPPRFSGSGSGTDYTLTIGGVQAEDAATYYCLGGYSYSNTGPTFGAGTKVEIK ?
Result string: 52
